Experiment: Maternal toxicokinetics, rat EFD study
Type: in vivo
Conditions: female, Wistar Han, rat, in vivo, po, 300 mg/kg/day
recordedEndpoint: Cmax
Just so you know, I need the unit written after the number.

molecule CC(C)(C)[C@H](NC(=O)C(F)(F)F)C(=O)N1C[C@H]2[C@@H]([C@H]1C(=O)N[C@H](C#N)C[C@@H]1CCNC1=O)C2(C)C [NMV, nirmatrelvir] , Cmax observed: 43200 ng/mL

====

Experiment: Maternal toxicokinetics, rabbit EFD study
Assay type: in vivo
Conditions: female, New Zealand White, rabbit, in vivo, po, 1000 mg/kg/day
recordedEndpoint: Cmax (µg/mL)
Give a bare numeral; the unit µg/mL is implied.

compound CC(C)(C)[C@H](NC(=O)C(F)(F)F)C(=O)N1C[C@H]2[C@@H]([C@H]1C(=O)N[C@H](C#N)C[C@@H]1CCNC1=O)C2(C)C [NMV, nirmatrelvir] , Cmax observed: 99.6
